For each entry below, report its Kd value.
# experimental-target: MPV fusion glycoprotein without the D280N mutation (MPV-F D280) (metapneumovirus)
# protocol-details: SPR; F protein loaded on streptavidin sensors, mAb in solution
Please give a number only; it is taken to be in pM.

IN: What does the data say about its Kd? Entry: MPK151 (antibody, V domains shown) VH: EVQLVESGGGLVKPGGSLRLSCAASGLTISGYYMIWIRQAPGKGLEWISDISASSTYTDYAESVKGRFSISRDNGQNTVYLQMNSLRAEDTAVYYCATEQTPSPGPFDLWGQGTLVTVSS VL: QSVLTQPPSVSGAPGQKITISCTGGSSNFGAGYDVHWYQQFPGTSPKLLIYRNTFRPSGVPDRFSGSKSGTSASLAITGLQAEDEADYYCQSYDRSLSGWVFGGGTKLTVL
OUT: 1

IN: // same read-out, input: MPK155 (antibody, V domains shown) VH: EVQLVESGGGLVKPGGSLRLSCEASGISLSGYYMIWIRQAPGKGLEWISSISSSSNYIDYADSVRGRFTISRHNGQNTLYLQMNSLRVEDTAVYFCATEQTPSPGPFDLWGQGILVTVSS VL: QSVLTQPPSVSGAPGQRVTIFCTGTSSNLGAGYDVHWYQQFPGTSPKLLIYRYTNRPSGVPDRFSGSKSGSSASLAIAGLQAEDEADYYCQSYDRSVSGWVFGGGTKLTVL
OUT: 1

IN: Input MPK196 (antibody, V domains shown) VH: QVQLVESGGGLVKPGGSLRLSCAASRFKFGDYYMSWIRQAPGKGLEWVSNISPSSSYTNYADSVKGRFTISRDNANNLLYLQMNSLRAEDTAVYYCARESCSGGSCSLHGMDVWGQGTTVTVAS VL: QSVLTQPPSVSGAPGQRVTISCTGSSSNIGAGYDVHWYQQLPGTAPKLLIYDNSNRPSGVPDRFSGSKSGTSASLAITGLRAEDDADYYCQSYDRSLGGSIFGGGTKLTVL
OUT: 3800
